Experiment: chemical genetic growth profiling, strain panel (AID 1159580);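 also: tested at 20 µM; growth read once vehicle control cultures reached saturation at 30 °C; 1 = growth at the plate median or of vehicle wells; lower values mean less growth of the strain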
Details: S. cerevisiae deletion strains, growth OD, locus YNR030W, strain Alg12, hits give low values
The whole screen tested about 5,500 compounds, of which about 2,000 (36%) were called active. Inconclusive results (about 18%) are left out. The list shows a part of the results.
Parameter normalized growth: see the listing below.
Lab note: record just the number, no unit beside it.

- COc1ccc(S(=O)(=O)Nc2cc(C)c(C)cc2[N+](=O)[O-])c(OC)c1: 0.998

input: Any idea what normalized growth was measured for Nc1cc(-c2ccc(Cl)cc2)nc(N)n1 ?
output: 1

input: Any idea what normalized growth was measured for CC1(C)/C(=N/OC(=O)c2cccc(C(F)(F)F)c2)[C@]2(C)CCC1C2 ?
output: 1.01

input: Any idea what normalized growth was measured for FC(F)(F)Oc1ccc(-c2noc(CSc3ccc(Br)cc3)n2)cc1 ?
output: 0.958

###

Assay: chemical genetic growth profiling, strain panel (AID 1159580);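 also: tested at 20 µM; growth read once vehicle control cultures reached saturation at 30 °C; 1 = growth at the plate median or of vehicle wells; lower values mean less growth of the strain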
Settings: S. cerevisiae deletion strains, growth OD, locus YNR052C, strain pop2
In all, about 5,500 compounds went through this assay and about 2,000 (36%) were called active. Not shown: some 18% with an inconclusive outcome. Cut-off read from the data, not from the text of the source: active = normalized growth mostly below about 0.91 (no sharp cut-off); inconclusive = no clear call, values can overlap the other calls; inactive = mostly above about 0.92. The list shows a part of the results.
I would appreciate it if you answered using one of these outcomes: True (active), False (inactive)

• COc1cc(OC)c2c(c1)O[C@H](c1ccc(OC)c(OC)c1)[C@@H](O)C2 = False
• NC/C=C/C(=O)O = False

input: Look up the recorded call for C1CCc2nnnn2CC1 in this test.
output: False

input: Look up the recorded call for COc1ccc2c(c1)OC[C@@H](Cc1ccc(OC)c(OC)c1)[C@H]2O in this test.
output: False

###

Assay: chemical genetic growth profiling, strain panel (AID 1159580);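 also: tested at 20 µM; growth read once vehicle control cultures reached saturation at 30 °C; 1 = growth at the plate median or of vehicle wells; lower values mean less growth of the strain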
Conditions: S. cerevisiae deletion strains, growth OD, locus YLR320W, strain mms22, hits give low values
The whole screen tested about 5,500 compounds, of which about 2,000 (36%) were called active. About 18% were inconclusive and are not listed. Some of the results follow.
Parameter normalized growth: see the listing below.
Lab note: record just the number, no unit beside it.

Below, 4 compounds whose answers are already recorded.
- COc1ccc(-c2coc3c(OC)c(OC)cc(O)c3c2=O)cc1: 0.993
- Cc1c(N(C)C)c(=O)n(-c2ccccc2)n1C: 0.994
- CCc1ccc(CCOc2ccc(CC3SC(=O)NC3=O)cc2)nc1 (stereo not given): 1.01
- CC(=O)O[C@H]1C(=O)[C@@]2(C)C([C@H](OC(=O)c3ccccc3)[C@]3(O)C[C@H](OC(=O)[C@H](O)[C@@H](NC(=O)c4ccccc4)c4ccccc4)C(C)=C1C3(C)C)[C@]1(OC(C)=O)CO[C@@H]1C[C@@H]2O (stereo not given in full): 1.01

As a next step, examine the compound that follows.
input: Any idea what normalized growth was measured for CN=C(NC#N)NCCSCc1nc(N=C(N)N)cs1 ?
output: 0.99

###

Experiment: chemical genetic growth profiling, strain panel (AID 1159580);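 also: tested at 20 µM; growth read once vehicle control cultures reached saturation at 30 °C; 1 = growth at the plate median or of vehicle wells; lower values mean less growth of the strain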
Conditions: S. cerevisiae deletion strains, growth OD, locus YPR141C, strain kar3, hits give low values
Hit rate of the full screen: of about 5,500 compounds, about 2,000 (36%) were called active. Not shown: some 18% with an inconclusive outcome. The list shows a part of the results.
reportedMetric: normalized growth
Lab note: record just the number, no unit beside it.

Below, 5 compounds whose answers are already recorded.
• CCc1nc(N)nc(N)c1-c1ccc(Cl)cc1 = 1
• COc1ccc2c(c1)OC[C@@H](Cc1ccc(OC)c(OC)c1)[C@@H]2O = 0.995
• NC/C=C/C(=O)O = 1.01
• COc1ccc(CC2c3cc(OC)c(OC)cc3CCN2C)cc1OC (configuration not stated) = 0.968
• COc1ccc(C[C@H]2NC[C@H](O)[C@H]2OC(C)=O)cc1 = 0.986

input: Any idea what normalized growth was measured for COc1ccc2c(c1)OC[C@@H](Cc1ccc(OC)c(OC)c1)[C@H]2O ?
output: 0.979

input: Any idea what normalized growth was measured for NC(N)=NOCC[C@H](N)C(=O)O ?
output: 0.988

Provenance of the data: PubChem BioAssay AID1159580
